self-splicing fitness (ln) values for the sequences below.
assay: self-splicing fitness, log relative to wild type (ln ratio); higher = more splicing; Tetrahymena group I intron in knt gene, E. coli kanamycin selection, DiMSum; sequences stand for … in CUCUCU…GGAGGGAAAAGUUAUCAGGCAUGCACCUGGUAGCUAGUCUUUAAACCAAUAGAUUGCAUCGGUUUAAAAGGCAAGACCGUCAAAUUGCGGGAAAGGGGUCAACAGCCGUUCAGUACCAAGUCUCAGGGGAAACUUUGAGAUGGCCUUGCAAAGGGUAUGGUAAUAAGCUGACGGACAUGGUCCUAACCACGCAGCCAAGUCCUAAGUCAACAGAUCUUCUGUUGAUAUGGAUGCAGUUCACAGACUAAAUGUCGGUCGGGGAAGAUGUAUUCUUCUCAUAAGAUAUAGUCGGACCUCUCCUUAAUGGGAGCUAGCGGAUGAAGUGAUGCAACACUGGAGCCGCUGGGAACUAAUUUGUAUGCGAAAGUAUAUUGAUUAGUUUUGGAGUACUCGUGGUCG; conditions: 30 °C;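 also: selection with 25 µg/mL kanamycin versus none on LB agar overnight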
Quantity: self-splicing fitness (ln)

{"columns": ["Seq string", "Quantity", "Result number"],
 "data": [
  ["CCUGAGCAAUAUUACGGCAU", "self-splicing fitness (ln)", -3.93],
  ["AAGUAGCAAUAUUACGUUCA", "self-splicing fitness (ln)", -0.86],
  ["CGUCAGCAAUAUUACGUACA", "self-splicing fitness (ln)", -0.533],
  ["AGUUAGCAAUAUUACGGUGG", "self-splicing fitness (ln)", -1.16],
  ["GCGCAGCAAUAUUACGUGAA", "self-splicing fitness (ln)", 0.0716],
  ["CAAAAGCAAUAUUACGAAAU", "self-splicing fitness (ln)", -3.75],
  ["AUGAAGCAAUAUUACGUGAC", "self-splicing fitness (ln)", -2.85],
  ["CUUUAGCAAUAUUACGGGAG", "self-splicing fitness (ln)", -2.89],
  ["UCUCAGCAAUAUUACGAACU", "self-splicing fitness (ln)", -1.75],
  ["UACAAGCAAUAUUACGGUUU", "self-splicing fitness (ln)", -1.86],
  ["CAAGAGCAAUAUUACGGAAA", "self-splicing fitness (ln)", -2.9],
  ["GGUGAGCAAUAUUACGGUGU", "self-splicing fitness (ln)", -3.9],
  ["AACUAGCAAUAUUACGGUGA", "self-splicing fitness (ln)", -1.58],
  ["UGGCAGCAAUAUUACGCCUA", "self-splicing fitness (ln)", -0.238],
  ["CCACAGCAAUAUUACGGACU", "self-splicing fitness (ln)", -3.9],
  ["CUUAAGCAAUAUUACGCUCA", "self-splicing fitness (ln)", -2.78]
]}

Hey, just so you know, these numbers are from the supplement of paper PMC7877785.
